- test: Antitumor activity against mouse Gardner lymphosarcoma allografted in C3H mouse assessed as tumor growth inhibition at 0.40 mg/kg, ip administered daily for 8 to 10 days
- Assay type: functional
- assaySetup: route intraperitoneal, read-out: TGI

{"structureNotation": "CC[C@]1(O)C[C@H]2CN(CCc3c([nH]c4ccccc34)[C@@](C(=O)OC)(c3cc4c(cc3OC)N(C)[C@H]3[C@@](O)(C(=O)NCc5ccccc5)[C@H](O)[C@]5(CC)C=CCN6CC[C@]43[C@@H]65)C2)C1", "inhibition in vivo at 0.4 mg/kg": "0%"}
{"structureNotation": "CC[C@]1(O)C[C@H]2CN(CCc3c([nH]c4ccccc34)[C@@](C(=O)OC)(c3cc4c(cc3OC)N(C)[C@H]3[C@@](O)(C(=O)NCCSSCCNC(C)=O)[C@H](O)[C@]5(CC)C=CCN6CC[C@]43[C@@H]65)C2)C1", "inhibition in vivo at 0.4 mg/kg": "51%"}
{"structureNotation": "CC[C@]1(O)C[C@H]2CN(CCc3c([nH]c4ccccc34)[C@@](C(=O)OC)(c3cc4c(cc3OC)N(C)[C@H]3[C@@](O)(C(=O)NCCSSCCNC(=O)[C@@]5(O)[C@H](O)[C@]6(CC)C=CCN7CC[C@@]8(c9cc([C@@]%10(C(=O)OC)C[C@@H]%11CN(CCc%12c%10[nH]c%10ccccc%12%10)C[C@](O)(CC)C%11)c(OC)cc9N(C)[C@@H]58)[C@@H]76)[C@H](O)[C@]5(CC)C=CCN6CC[C@]43[C@@H]65)C2)C1.O=S(=O)(O)O", "inhibition in vivo at 0.4 mg/kg": "76%"}
